pIC50: −log10 of the molar value.
Literature survey of pIC50 (system: UniProt Q13822).
measurementLabel: pIC50

{"smilesData": "Cc1cc(OCc2n[nH]c3ncccc23)c(-c2cc(C(=O)N3CCN(C)C(=O)C3)ccc2F)cc1Cl", "pIC50": 8.10}
{"smilesData": "Nc1ccc(C(=O)N2C[C@H]3CN(C(=O)OCc4cc(Cl)cc(Cl)c4)C[C@H]3C2)cc1", "pIC50": 6.59}

[I] COc1ncccc1-c1cc(Cl)c(C)cc1OCc1n[nH]c2c1CCNC2
[II] O=C(CCc1ccc(OC(F)(F)F)cc1F)N1C[C@@H]2CN(C(=O)[C@@H]3CCc4[nH]nnc4C3)C[C@H]2C1
Q: Task for the reader: decide whether I or II has the larger pIC50. Output the label that corresponds to your choice.
Ans: II
